Form field: MIC (one value per entry).
# Test system: Staphylococcus aureus
# Run description: Antimicrobial activity against Staphylococcus aureus
# Format: functional
Assay endpoint: MIC (µg/mL)

CCC(CC)c1cc([C@H]2CN3CC[C@H]2C[C@@H]3CN)nc(-c2ccncc2)n1 ... 6.53
NC(=O)c1c(F)ccc(OCc2nc3cc(Cl)cnc3s2)c1F ... 1
Oc1cc(O)c2c(c1)C/C(Cl)=C\Cc1cc(c(Cl)cc1O)Oc1c(O)cc(cc1O)C/C(Cl)=C\Cc1cc(c(Cl)cc1O)O2 ... 1.8
